// provenance: ChEMBL document CHEMBL1132247

Assay: Binding affinity towards human Nicotinic acetylcholine receptor was determined using [3H]epibatidine
Quantity Measured: Ki (nM)

* Fc1ncccc1OC[C@@H]1CCN1 | 0.046

----------
Species on record: Rattus norvegicus
Experiment: Biodistribution in rat superior coliculus, expressed as percent I.D./g tissue
Assay type: ADME, organism-based
Details: in vivo
Quantity Measured: Biodistribution (%)

- Fc1ncccc1OC[C@@H]1CCN1: 0.2
- CN1C2CCCC1CC(NC(=O)c1nn(C)c3ccccc13)C2 (stereo not given) [GRANISETRON]: 0.6
- CNC(=O)Oc1ccc2c(c1)[C@]1(C)CCN(C)[C@@H]1N2C [PHYSOSTIGMINE]: 0.4
- O=c1cccc2n1CC1CNC[C@H]2C1 (single isomer, unassigned) [CYTISINICLINE]: 0.2
- Clc1ccc(C2CC3CCC2N3)cn1 (stereo not given) [EPIBATIDINE]: 0.2

----------
Species: Rattus norvegicus
Experiment: Biodistribution in rat thalamus, expressed as percent I.D./g tissue
Type: ADME, organism-based
Conditions: in vivo
Listed below: Biodistribution values for each entry.
Quantity Measured: Biodistribution (%)

• O=c1cccc2n1CC1CNC[C@H]2C1 (single isomer, unassigned) = 0.2
• CNC(=O)Oc1ccc2c(c1)[C@]1(C)CCN(C)[C@@H]1N2C = 0.5
• Clc1ccc(C2CC3CCC2N3)cn1 (stereo not given) [EPIBATIDINE] = 0.2
• Fc1ncccc1OC[C@@H]1CCN1 = 0.3
• CN1C2CCCC1CC(NC(=O)c1nn(C)c3ccccc13)C2 (stereo not given) = 0.9

----------
Molecular target: Neuronal acetylcholine receptor; alpha4/beta2 (Homo sapiens, UniProt P17787+P43681)
Sequence (P17787 whole entry): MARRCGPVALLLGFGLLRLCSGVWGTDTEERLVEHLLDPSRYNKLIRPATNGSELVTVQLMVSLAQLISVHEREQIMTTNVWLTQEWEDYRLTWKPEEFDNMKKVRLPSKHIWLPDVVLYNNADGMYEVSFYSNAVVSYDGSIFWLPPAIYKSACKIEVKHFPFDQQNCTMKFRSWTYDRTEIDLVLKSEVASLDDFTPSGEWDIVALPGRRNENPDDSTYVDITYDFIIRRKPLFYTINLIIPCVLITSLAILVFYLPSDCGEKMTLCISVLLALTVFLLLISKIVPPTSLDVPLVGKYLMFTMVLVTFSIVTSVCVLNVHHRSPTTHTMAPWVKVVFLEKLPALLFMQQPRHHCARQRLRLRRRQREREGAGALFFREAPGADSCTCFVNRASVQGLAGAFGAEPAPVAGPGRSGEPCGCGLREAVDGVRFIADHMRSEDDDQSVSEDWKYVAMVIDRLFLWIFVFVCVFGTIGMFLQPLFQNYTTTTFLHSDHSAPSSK
Sequence (P43681 whole entry): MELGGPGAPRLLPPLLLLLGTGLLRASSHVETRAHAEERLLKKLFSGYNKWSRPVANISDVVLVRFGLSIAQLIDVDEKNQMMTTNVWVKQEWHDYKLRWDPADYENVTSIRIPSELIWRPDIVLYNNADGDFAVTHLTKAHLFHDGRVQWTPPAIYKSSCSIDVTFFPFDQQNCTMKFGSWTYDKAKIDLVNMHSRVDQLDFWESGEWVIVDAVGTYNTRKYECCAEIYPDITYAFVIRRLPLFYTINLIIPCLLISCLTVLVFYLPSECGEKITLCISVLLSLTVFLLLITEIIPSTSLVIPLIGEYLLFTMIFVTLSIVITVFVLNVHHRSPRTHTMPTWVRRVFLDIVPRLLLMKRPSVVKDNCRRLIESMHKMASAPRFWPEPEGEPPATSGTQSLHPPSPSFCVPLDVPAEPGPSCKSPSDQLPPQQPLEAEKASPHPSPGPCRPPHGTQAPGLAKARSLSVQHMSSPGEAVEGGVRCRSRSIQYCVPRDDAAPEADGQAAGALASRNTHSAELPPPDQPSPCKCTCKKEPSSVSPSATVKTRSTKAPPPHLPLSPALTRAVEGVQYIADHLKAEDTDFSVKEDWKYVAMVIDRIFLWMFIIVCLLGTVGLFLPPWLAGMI
Test: Binding affinity against human Nicotinic acetylcholine receptor alpha4-beta2
pKi: −log10 of the molar value.
Quantity Measured: pKi

* c1cncc(OC[C@@H]2CCN2)c1 | 10.30
